tested on: HCT-116; assay: Cytotoxicity against human HCT116 cells after 3 days by CellTitre Glo assay; type: functional, cell-based; settings: HCT-116, 72 h
assayMetric: pEC50
Keep in mind that pEC50 stands for -log10 of concentration in molar terms.

Below are worked cases with known answers.
[[record]]
smilesentry = "O=c1cc(-c2c[nH]c3ncccc23)nc(N2CCC(O)CC2)[nH]1"
recordedvalue = 5.21

[[record]]
smilesentry = "CN1CCC(Nc2nc(-c3c[nH]c4ncccc34)cc(=O)[nH]2)CC1"
recordedvalue = 5.13


The record that follows has no pEC50 shown yet.
Query: # query: pEC50 of entry O=c1cc(-c2c[nH]c3ncccc23)nc(NC2CCOCC2)[nH]1
Result: 5.61

----------
Ki for assorted compounds
target: CDC7/DBF4 (Cell division cycle 7-related protein kinase/Activator of S phase kinase) (Homo sapiens)
# number only, unit nM dropped from output

Below are worked cases with known answers.
[[record]]
smilesentry = "Oc1cc(NC2CCCCC2)nc(-c2c[nH]c3ncccc23)c1"
endpointunit = "nM"
recordedvalue = 5.4

[[record]]
smilesentry = "O=c1cc(-c2c[nH]c3ncccc23)nc(N2CCC(O)CC2)[nH]1"
endpointunit = "nM"
recordedvalue = 0.2

[[record]]
smilesentry = "O=c1cc(-c2c[nH]c3ncccc23)nc(NC(c2ccccc2)c2ccccc2)[nH]1"
endpointunit = "nM"
recordedvalue = 328


Query: # query: Ki of entry O=c1nc(-c2c[nH]c3ncccc23)cc(NC2CCCCC2)[nH]1
Result: 1.4

Query: # query: Ki of entry COC1CCN(c2nc(-c3c[nH]c4ncccc34)cc(=O)[nH]2)CC1
Result: 0.2

Query: # query: Ki of entry O=c1cc(-c2ccc3[nH]ncc3c2)nc(NC2CCCCC2)[nH]1
Result: 0.5

----------
target: CDC7/DBF4 (Cell division cycle 7-related protein kinase/Activator of S phase kinase) (Homo sapiens, UniProt O00311); assay: Inhibition of CDC7/DBF4-mediated MCM2 phosphorylation in human HCT116 cells after 6 hrs by spectrophotometric analysis
Sequence (Q9UBU7 whole entry): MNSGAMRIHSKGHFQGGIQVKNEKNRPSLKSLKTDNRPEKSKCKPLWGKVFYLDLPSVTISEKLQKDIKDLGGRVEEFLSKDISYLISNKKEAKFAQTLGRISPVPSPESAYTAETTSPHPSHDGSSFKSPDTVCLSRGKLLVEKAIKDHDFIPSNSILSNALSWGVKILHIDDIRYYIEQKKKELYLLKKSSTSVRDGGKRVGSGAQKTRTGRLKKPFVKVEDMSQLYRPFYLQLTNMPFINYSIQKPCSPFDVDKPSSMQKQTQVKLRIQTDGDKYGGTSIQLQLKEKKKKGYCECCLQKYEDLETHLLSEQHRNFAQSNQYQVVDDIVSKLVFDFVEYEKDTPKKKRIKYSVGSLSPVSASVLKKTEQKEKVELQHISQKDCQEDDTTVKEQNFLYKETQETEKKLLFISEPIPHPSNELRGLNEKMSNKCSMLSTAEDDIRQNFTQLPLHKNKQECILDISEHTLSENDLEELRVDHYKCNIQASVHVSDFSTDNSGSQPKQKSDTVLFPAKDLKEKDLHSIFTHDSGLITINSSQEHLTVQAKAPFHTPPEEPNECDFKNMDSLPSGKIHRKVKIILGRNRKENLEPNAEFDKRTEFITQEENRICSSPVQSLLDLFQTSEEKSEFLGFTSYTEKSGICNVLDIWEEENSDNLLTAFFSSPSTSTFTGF
Sequence (O00311 whole entry): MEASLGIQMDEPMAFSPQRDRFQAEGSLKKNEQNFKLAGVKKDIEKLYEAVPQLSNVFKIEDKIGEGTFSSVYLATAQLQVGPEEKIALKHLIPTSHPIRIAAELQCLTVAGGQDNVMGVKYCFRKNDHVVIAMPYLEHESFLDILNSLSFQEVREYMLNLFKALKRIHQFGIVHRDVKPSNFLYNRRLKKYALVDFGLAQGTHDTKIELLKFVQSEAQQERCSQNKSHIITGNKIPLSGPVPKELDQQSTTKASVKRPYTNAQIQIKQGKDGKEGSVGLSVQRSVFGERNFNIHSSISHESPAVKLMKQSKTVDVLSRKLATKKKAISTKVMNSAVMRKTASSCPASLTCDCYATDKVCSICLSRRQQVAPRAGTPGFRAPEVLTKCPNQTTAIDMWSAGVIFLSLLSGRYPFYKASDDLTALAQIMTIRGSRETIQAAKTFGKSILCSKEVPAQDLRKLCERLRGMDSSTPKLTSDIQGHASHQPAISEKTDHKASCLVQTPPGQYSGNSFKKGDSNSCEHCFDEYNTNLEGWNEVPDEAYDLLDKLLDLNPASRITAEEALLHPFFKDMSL
assayMetric: log10 EC50 (log10 of the value in nM)
# log10 transformed; quantity=EC50; unit=nM

Below are worked cases with known answers.
[[record]]
smilesentry = "O=c1cc(-c2c[nH]c3ncccc23)nc(N2CCOCC2)[nH]1"
assaymetric = "log10 EC50"
recordedvalue = 2.48

[[record]]
smilesentry = "O=c1cc(-c2c[nH]c3ncccc23)nc(NC2CCOCC2)[nH]1"
assaymetric = "log10 EC50"
recordedvalue = 2.48

[[record]]
smilesentry = "O=c1cc(-c2c[nH]c3ncccc23)nc(N2CCC(O)CC2)[nH]1"
assaymetric = "log10 EC50"
recordedvalue = 3.25

[[record]]
smilesentry = "CN(c1nc(-c2c[nH]c3ncccc23)cc(=O)[nH]1)C1CCCCC1"
assaymetric = "log10 EC50"
recordedvalue = 1.18

[[record]]
smilesentry = "O=c1cc(-c2c[nH]c3ncccc23)nc(NC2CCCCC2)[nH]1"
assaymetric = "log10 EC50"
recordedvalue = 1.78

[[record]]
smilesentry = "O=c1cc(-c2c[nH]c3ncccc23)nc(NCc2ccccc2)[nH]1"
assaymetric = "log10 EC50"
recordedvalue = 2.26

[[record]]
smilesentry = "O=c1cc(-c2c[nH]c3ncccc23)nc(-c2ccccc2)[nH]1"
assaymetric = "log10 EC50"
recordedvalue = 2.61

[[record]]
smilesentry = "O=c1cc(-c2c[nH]c3ncccc23)nc(Nc2ccccc2)[nH]1"
assaymetric = "log10 EC50"
recordedvalue = 2.16

[[record]]
smilesentry = "COC1CCN(c2nc(-c3c[nH]c4ncccc34)cc(=O)[nH]2)CC1"
assaymetric = "log10 EC50"
recordedvalue = 2.48

[[record]]
smilesentry = "COCCN(CCOC)c1nc(-c2c[nH]c3ncccc23)cc(=O)[nH]1"
assaymetric = "log10 EC50"
recordedvalue = 1.78


The record that follows has no log10 EC50 shown yet.
Query: # query: log10 EC50 of entry CN1CCC(Nc2nc(-c3c[nH]c4ncccc34)cc(=O)[nH]2)CC1
Result: 3.42
